molecular target: Delta-type opioid receptor (Mus musculus, UniProt P32300); experiment: Agonistic activity towards Opioid receptor delta 1 as inhibitory activity towards electrically stimulated mouse vas deferens
Sequence (P32300 whole entry): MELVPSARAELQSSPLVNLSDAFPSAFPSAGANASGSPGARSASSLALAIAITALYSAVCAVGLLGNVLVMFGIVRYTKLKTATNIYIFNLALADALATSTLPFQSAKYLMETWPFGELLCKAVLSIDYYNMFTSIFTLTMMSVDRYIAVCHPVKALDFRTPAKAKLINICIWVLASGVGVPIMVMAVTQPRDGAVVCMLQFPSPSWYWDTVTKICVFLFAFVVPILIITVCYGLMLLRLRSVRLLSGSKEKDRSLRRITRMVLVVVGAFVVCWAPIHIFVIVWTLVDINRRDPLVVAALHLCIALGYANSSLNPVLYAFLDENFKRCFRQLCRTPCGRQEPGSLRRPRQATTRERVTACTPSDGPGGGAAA
Lab note: cut-off is 0.2 µM. Strictly less in IC50 is y. Exactly 0.2 µM or more is n.

Reference set (5 entries):
COc1ccc2c3c([nH]c2c1)C[C@@H]1C[C@@]3(c2cccc(O)c2)CCN1C	y
COc1ccc2c3c([nH]c2c1)CC1CC3(c2cccc(O)c2)CCN1C (racemic)	y
CN1CC[C@]2(c3cccc(O)c3)C[C@H]1Cc1[nH]c3ccccc3c12	n
COc1cccc2c3c([nH]c12)CC1CC3(c2cccc(O)c2)CCN1C (racemic)	n
COc1cccc2c3c([nH]c12)CC1CC3(c2cccc(O)c2)CCN1C (single isomer, unassigned; (-))	y

Next compound, please.
Say whether its IC50 is strictly beneath 0.2 µM. Entry: COc1ccc2[nH]c3c(c2c1)C1(c2cccc(O)c2)CCN(C)C(C3)C1 (racemic)
n

Source listed as ChEMBL document CHEMBL1129071.
